Target: mouse TAAR1 (Mus musculus (Mouse))
Sequence (Q923Y8 whole entry): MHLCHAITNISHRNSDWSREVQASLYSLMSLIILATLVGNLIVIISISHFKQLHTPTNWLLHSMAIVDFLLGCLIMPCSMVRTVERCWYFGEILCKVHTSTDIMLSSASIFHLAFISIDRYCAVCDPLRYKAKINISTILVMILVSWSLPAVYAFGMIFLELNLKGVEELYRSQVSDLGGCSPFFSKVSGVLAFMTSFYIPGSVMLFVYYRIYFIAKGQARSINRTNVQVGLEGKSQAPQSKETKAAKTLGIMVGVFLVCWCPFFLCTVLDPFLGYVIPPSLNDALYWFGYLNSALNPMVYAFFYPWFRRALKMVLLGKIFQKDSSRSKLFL
Assay: Radioligand binding assay on mouse TAAR1
Settings: mouse TAAR1, membranes of stably transfected HEK-293 cells; first value of mouse/rat pair
hey, just use satisfied if measured Ki is less than 0.008 µM, otherwise not satisfied

Reference set, count: 4
- Compound: "COc1cccc(Nc2ccc3c(c2)CC[C@H](N)C3)c1 [Example 94]"
  Class label: "not satisfied"
- Compound: "N[C@H]1CCc2cc(Nc3cccc(Cl)c3)ccc2C1 [Example 68]"
  Class label: "not satisfied"
- Compound: "CCCc1cc(C(=O)Nc2ccc3c(c2)CC[C@H](N)C3)nn1CC(F)F [Example 5]"
  Class label: "satisfied"
- Compound: "CCCc1cc(C(=O)Nc2ccc3c(c2)CC[C@@H](N)C3)nn1CC(F)F [Example 4]"
  Class label: "not satisfied"

--- query ---
Given the entry N[C@H]1COc2cc(NC(=O)c3ncc(C(F)(F)F)cn3)ccc2C1 [Example 84] , would its reported Ki be below 0.008 µM?
not satisfied
